Cited source: patent US9562035B2

# system tested: FASN Keto-reductase Domain (Homo sapiens, UniProt P49327)
# Construct: 10 μL hFASN enzyme (full length, 300 ng, purified in house) and 360 μM NADPH; made in house
# Sequence (P49327 whole entry, the tested form may be a part): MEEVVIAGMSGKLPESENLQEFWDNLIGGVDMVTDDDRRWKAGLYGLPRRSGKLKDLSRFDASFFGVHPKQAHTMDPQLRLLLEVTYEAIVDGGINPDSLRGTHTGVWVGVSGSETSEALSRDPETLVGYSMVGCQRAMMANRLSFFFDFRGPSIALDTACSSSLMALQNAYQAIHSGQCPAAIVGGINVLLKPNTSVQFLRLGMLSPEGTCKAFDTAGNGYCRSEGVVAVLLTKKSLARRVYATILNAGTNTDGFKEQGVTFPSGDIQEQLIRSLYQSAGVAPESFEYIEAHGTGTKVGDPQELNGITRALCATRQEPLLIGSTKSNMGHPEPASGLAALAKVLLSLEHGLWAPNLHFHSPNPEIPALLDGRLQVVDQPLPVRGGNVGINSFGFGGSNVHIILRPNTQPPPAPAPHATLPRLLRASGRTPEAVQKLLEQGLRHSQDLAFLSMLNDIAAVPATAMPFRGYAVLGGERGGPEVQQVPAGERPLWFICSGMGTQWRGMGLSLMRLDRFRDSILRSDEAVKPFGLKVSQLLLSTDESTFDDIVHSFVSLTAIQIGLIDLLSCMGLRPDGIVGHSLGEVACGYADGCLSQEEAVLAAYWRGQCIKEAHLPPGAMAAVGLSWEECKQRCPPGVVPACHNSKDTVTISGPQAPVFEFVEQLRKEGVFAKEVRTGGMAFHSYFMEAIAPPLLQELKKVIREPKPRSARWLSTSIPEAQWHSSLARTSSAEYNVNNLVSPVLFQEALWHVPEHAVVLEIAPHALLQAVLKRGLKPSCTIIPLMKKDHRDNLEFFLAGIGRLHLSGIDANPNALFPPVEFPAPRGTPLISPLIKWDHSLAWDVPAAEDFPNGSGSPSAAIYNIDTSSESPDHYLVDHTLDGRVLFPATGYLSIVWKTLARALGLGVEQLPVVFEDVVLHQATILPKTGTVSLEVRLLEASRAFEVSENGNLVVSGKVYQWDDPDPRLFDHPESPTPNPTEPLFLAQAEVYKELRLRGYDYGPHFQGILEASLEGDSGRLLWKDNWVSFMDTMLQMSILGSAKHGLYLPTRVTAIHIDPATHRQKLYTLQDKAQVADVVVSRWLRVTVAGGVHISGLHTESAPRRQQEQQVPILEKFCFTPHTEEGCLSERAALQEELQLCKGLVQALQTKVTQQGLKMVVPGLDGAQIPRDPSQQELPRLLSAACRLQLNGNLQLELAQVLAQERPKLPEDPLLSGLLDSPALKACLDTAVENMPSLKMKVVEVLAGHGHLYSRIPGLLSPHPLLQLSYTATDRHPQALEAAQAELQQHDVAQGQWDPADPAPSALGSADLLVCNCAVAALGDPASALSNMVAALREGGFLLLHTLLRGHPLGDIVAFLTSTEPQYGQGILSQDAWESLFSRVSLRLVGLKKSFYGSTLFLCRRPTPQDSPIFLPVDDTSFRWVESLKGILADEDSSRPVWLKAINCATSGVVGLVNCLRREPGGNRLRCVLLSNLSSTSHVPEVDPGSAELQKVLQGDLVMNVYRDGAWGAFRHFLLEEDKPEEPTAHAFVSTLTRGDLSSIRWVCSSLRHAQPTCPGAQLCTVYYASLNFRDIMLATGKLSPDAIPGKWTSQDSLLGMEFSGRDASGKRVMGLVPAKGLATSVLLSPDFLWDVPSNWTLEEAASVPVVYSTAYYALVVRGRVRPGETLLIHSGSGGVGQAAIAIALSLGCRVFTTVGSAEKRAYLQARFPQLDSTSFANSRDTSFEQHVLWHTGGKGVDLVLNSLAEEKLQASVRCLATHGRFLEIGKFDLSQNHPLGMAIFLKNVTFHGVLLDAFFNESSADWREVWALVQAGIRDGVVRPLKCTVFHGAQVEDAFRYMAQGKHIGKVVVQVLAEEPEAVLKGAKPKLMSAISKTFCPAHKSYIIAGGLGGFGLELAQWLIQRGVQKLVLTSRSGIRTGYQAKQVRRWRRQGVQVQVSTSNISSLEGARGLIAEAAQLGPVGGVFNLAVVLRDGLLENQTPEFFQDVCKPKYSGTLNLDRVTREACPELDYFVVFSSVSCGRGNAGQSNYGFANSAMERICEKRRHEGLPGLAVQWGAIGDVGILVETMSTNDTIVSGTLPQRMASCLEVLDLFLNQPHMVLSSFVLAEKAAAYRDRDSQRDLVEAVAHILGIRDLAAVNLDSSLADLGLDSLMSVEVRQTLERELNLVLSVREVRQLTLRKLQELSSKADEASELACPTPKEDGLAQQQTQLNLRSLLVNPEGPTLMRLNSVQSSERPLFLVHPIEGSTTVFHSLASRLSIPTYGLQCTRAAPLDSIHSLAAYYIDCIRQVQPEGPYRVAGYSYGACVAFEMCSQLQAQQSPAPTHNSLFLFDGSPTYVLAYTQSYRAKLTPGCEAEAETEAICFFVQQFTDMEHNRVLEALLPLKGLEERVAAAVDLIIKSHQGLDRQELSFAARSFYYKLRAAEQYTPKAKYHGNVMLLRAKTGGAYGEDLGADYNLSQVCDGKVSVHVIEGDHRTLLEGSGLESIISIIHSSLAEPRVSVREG
# assay remarks: Fatty Acid Synthase Keto-Reductase Domain (FASN KR) Inhibition
# Format: biochemical
# details: mean where tested more than once; read-out: FASN K-R Domain pIC50 (converted)
List of log10 of IC50 values.
A value of 2 here means IC50 of 100 in nM, since values are log10.

Known results for compounds:
- compound: "Cc1ccc(C(=O)N2CCC(c3ccc(-c4cnn(C)c4)cc3)CC2)cc1NC(=O)C1CN(CC(C)C)C1"
  log10 of IC50: 2.49
- compound: "Cc1ccc(C(=O)N2CCC(c3ccc(-c4cnn(-c5cccnc5)c4)cc3)CC2)cc1NC(=O)c1ccc(NC(C)C)nc1"
  log10 of IC50: 2.10
- compound: "Cc1ccc(C(=O)N2CCC(c3ccc(-n4ccnc4)cc3)CC2)cc1NC(=O)c1ccc(Cl)nc1"
  log10 of IC50: 1.69
- compound: "CCN1CCC(C(=O)Nc2cc(C(=O)N3CCC(c4ccc(-c5cnn(C)c5)cc4)CC3)ccc2C)C1 (centres unmarked)"
  log10 of IC50: 2.70
- compound: "CCC(=O)NC1CC[C@@H](C(=O)Nc2cc(C(=O)N3CC(c4ccc(-c5ccnn5C)cc4)C3)ccc2C)C1 (stereo in doubt)"
  log10 of IC50: 1.93

Value sought: log10 of IC50, system FASN Keto-reductase Domain (Homo sapiens, UniProt P49327), item Cc1ccc(C(=O)N2CCC(c3ccc(-c4cnn(C(C)C)c4)cc3)CC2)cc1NC(=O)c1ccc(NC(C)C)nc1 . Result: 1.96

Lab note: compound Cc1ccc(C(=O)N2CCC(c3ccc(-c4cnn(C)c4)cc3)CC2)cc1NC(=O)C1CN(CCC(C)C)C1 tested on FASN Keto-reductase Domain (Homo sapiens, UniProt P49327); recorded log10 of IC50 was 2.29
